Source: PubChem BioAssay AID588488

# inhibition per record follows
molecular target: Protein-arginine deiminase type-2 (Homo sapiens); assay: single-point PAD isozyme enzyme inhibition – biochemical, colorimetric, BAEE substrate, HTS hits, selectivity assay for PAD4 inhibitor project, late-stage follow-up (AID 588488); conditions: Recombinant PAD1-4, BAEE citrulline colorimetric absorbance; PAD2; at 10 µM; hits give high values
Active and inactive are the calls of the source.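 The calls were made as follows: active = inhibition of 50% or more in at least one of the four enzyme panels; inactive = below 50% inhibition in every panel.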

| compound | inhibition |
| --- | --- |
| S=C(NCc1ccco1)Nc1cccc(Cl)c1 | 13% (inactive) |
| Cc1ccc(CNC(=O)c2ccc(C)c(S(=O)(=O)N3CCCCC3)c2)cc1 | 15% (inactive) |
| COc1cccc(/C=C2/CN(C)CC3=C2OC(N)=C(C#N)C3c2cccc(OC)c2)c1 (stereo unspecified) | 20% (inactive) |
| COc1ccc(S(=O)(=O)Nc2ccccc2C)cc1 | 14% (inactive) |
| Cc1c(NC(=O)CSc2nccn2C)c(=O)n(-c2ccccc2)n1C | 3% (inactive) |
| COc1cccc(NC(=O)C2c3cc(OC)c(OC)cc3C(=O)N(C)C2c2cccnc2)c1 (stereo unspecified) | 26% (inactive) |
| COc1ccc(CCNC(=O)COC(=O)c2ccc(C)s2)cc1 | 9% (inactive) |
| Cc1oc2c(C)c(O)ccc2c(=O)c1-c1ccc2ccccc2n1 | 9% (inactive) |
| COc1cccc(NC(=O)CN(C)C(=O)C23CC4CC(CC(Cl)(C4)C2)C3)c1 | 20% (inactive) |
| Cc1nn(-c2ccccc2)c(C)c1NC(=O)COc1ccc(Cl)cc1Cl | 17% (inactive) |
| COc1cccc2cc(C(=O)NC3CC(C)(C)NC(C)(C)C3)c(=O)oc12 | 3% (inactive) |
